Data provenance: patent US12415830B2

molecular target: GABAA1 (α1β2γ2) receptor (Homo sapiens, UniProt P14867+P47870); construct: expressed in transfected cells; experiment: Patch-clamp electrophysiology on recombinant GABAA1 receptor in HEK293 cells, with 3 μM GABA; format: cell-based; details: HEK293; 1 μM compound together with 3 μmol GABA; read-out: potency: ratio of the peak current on the GABAA1 receptor to the peak current in 100 μmol GABA
Sequence (P14867 28-456): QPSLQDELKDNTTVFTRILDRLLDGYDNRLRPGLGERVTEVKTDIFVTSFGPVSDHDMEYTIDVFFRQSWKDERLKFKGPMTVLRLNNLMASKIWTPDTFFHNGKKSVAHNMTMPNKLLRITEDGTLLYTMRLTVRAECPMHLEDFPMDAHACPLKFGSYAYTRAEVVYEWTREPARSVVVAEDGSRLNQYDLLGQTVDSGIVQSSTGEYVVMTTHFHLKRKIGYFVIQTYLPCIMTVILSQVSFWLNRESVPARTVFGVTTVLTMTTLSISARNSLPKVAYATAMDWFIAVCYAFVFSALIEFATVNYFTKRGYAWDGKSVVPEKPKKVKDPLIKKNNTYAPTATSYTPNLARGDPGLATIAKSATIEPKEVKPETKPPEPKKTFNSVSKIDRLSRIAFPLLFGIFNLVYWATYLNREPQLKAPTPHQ
Sequence (P47870 26-512): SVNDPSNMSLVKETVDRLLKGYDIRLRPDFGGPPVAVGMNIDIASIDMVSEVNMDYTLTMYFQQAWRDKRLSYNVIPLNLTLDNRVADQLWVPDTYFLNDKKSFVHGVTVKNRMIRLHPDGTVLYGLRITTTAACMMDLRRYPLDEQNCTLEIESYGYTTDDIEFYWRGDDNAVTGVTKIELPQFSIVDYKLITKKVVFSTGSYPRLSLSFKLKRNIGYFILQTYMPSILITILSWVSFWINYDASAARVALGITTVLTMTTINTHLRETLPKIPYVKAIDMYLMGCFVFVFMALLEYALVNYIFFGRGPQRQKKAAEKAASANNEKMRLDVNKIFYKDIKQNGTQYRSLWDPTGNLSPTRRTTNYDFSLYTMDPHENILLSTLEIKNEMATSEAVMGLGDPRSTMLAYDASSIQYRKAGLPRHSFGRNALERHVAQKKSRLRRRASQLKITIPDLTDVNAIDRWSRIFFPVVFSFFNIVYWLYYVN
Sequence (P18507 40-475 partner): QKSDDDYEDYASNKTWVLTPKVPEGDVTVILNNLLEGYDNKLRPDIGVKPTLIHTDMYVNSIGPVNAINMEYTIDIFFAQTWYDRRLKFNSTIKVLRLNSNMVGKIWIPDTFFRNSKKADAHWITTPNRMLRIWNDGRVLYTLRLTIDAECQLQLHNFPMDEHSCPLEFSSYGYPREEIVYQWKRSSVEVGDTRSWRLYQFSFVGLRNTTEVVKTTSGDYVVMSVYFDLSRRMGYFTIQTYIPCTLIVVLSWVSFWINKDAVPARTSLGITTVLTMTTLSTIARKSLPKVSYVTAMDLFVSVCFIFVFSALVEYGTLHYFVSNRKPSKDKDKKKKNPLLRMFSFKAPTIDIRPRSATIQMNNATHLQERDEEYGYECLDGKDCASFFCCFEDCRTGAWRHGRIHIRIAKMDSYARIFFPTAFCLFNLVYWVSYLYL
Each entry below carries its reported Emax at 1 µM.

SMILES_ENTRY	Emax at 1 µM
C[C@@]1(O)CC[C@@]2(C)[C@@H](CC[C@@H]3[C@@H]2CC[C@]2(C)[C@@H](C(=O)Cn4nnc(-c5ccccc5)n4)CCC[C@@H]32)C1	60 to 80%
C[C@@]1(O)CC[C@@]2(C)[C@@H](CC[C@@H]3[C@@H]2CC[C@]2(C)[C@@H](C(=O)Cn4ncnn4)CCC[C@@H]32)C1	40 to 60%
C[C@]12CC[C@@H](O)C[C@@H]1CC[C@@H]1[C@@H]2CC[C@]2(C)[C@@H](C(=O)Cn3ccnc3)CCC[C@@H]12	40 to 60%

So for COc1ncnc2ncn(CC(=O)[C@H]3CCC[C@H]4[C@@H]5CC[C@H]6C[C@H](O)CC[C@]6(C)[C@H]5CC[C@]34C)c12 , the logged Emax at 1 µM turned out to be 0 to 20%

So for C[C@]12CC[C@@H](O)C[C@@H]1CC[C@@H]1[C@@H]2CC[C@]2(C)[C@@H](C(=O)Cn3cnc4cncnc43)CCC[C@@H]12 , the logged Emax at 1 µM turned out to be 60 to 80%

So for Cc1nnn(CC(=O)[C@H]2CCC[C@H]3[C@@H]4CC[C@H]5C[C@H](O)CC[C@]5(C)[C@H]4CC[C@]23C)n1 , the logged Emax at 1 µM turned out to be 20 to 40%

So for C[C@@]1(O)CC[C@@]2(C)[C@@H](CC[C@@H]3[C@@H]2CC[C@]2(C)[C@@H](C(=O)CSc4cccs4)CCC[C@@H]32)C1 , the logged Emax at 1 µM turned out to be 60 to 80%

So for Cn1nnnc1SCC(=O)[C@H]1CCC[C@H]2[C@@H]3CC[C@@H]4C[C@](C)(O)CC[C@@H]4[C@H]3CC[C@]12C , the logged Emax at 1 µM turned out to be 0 to 20%

---

target: GABAA1 (α1β2γ2) receptor (Homo sapiens, UniProt P14867+P47870); construct: expressed in transfected cells; assay: Patch-clamp electrophysiology on recombinant GABAA1 receptor in HEK293 cells, with 3 μM GABA; format: cell-based; conditions: HEK293; 1 μM compound together with 3 μmol GABA; read-out: potency: ratio of the peak current on the GABAA1 receptor to the peak current in 100 μmol GABA
Each entry below carries its reported Emax at 1 µM.

Before answering, review these 5 worked examples.
COMPOUND	OBSERVED_VALUE
C[C@@]1(O)CC[C@@]2(C)[C@@H](CC[C@@H]3[C@@H]2CC[C@]2(C)[C@@H](C(=O)COc4ncnc5c(F)cccc45)CCC[C@@H]32)C1	20 to 40%
C[C@]12CC[C@@H](O)C[C@@H]1CC[C@@H]1[C@@H]2CC[C@]2(C)[C@@H](C(=O)Cn3ccc(C#N)n3)CCC[C@@H]12	> 80%
CC(=O)[C@H]1CCC[C@H]2[C@@H]3CC[C@H]4C[C@](C)(O)CC[C@]4(C)[C@H]3CC[C@]12C	0 to 20%
Cn1nnnc1SCC(=O)[C@H]1CCC[C@H]2[C@@H]3CC[C@H]4C[C@](C)(O)CC[C@]4(C)[C@H]3CC[C@]12C	40 to 60%
CC(=O)C1CCCC2[C@@H]3CC[C@H]4C[C@H](O)CC[C@]4(C)[C@H]3CC[C@]12C (stereo partly shown)	60 to 80%

So for C[C@]12CC[C@@H](O)C[C@@H]1CC[C@@H]1[C@@H]2CC[C@]2(C)[C@@H](C(=O)Cn3cccn3)CCC[C@@H]12 , the logged Emax at 1 µM turned out to be 40 to 60%

So for COc1nnc(OCC(=O)[C@H]2CCC[C@H]3[C@@H]4CC[C@H]5C[C@](C)(O)CC[C@]5(C)[C@H]4CC[C@]23C)n1C , the logged Emax at 1 µM turned out to be 0 to 20%

---

Each entry below carries its reported Emax at 1 µM.
Molecular target: GABAA1 (α1β2γ2) receptor (Homo sapiens, UniProt P14867+P47870)
Construct: expressed in transfected cells
Test: Patch-clamp electrophysiology on recombinant GABAA1 receptor in HEK293 cells, with 3 μM GABA
Assay type: cell-based
Settings: HEK293; 1 μM compound together with 3 μmol GABA; read-out: potency: ratio of the peak current on the GABAA1 receptor to the peak current in 100 μmol GABA
Method: The present invention applies the two subunits of the recombinant GABAA receptor: α1β2γ2 and α4β3δ to evaluate the potency of the exemplary compounds in vitro by patch-clamp electrophysiology. […] Whole cell model recorded GABAA1 receptors current experimental protocol was indicated as follows: When sealing, cell was at a holding potential of −70 mV, with gap-free mode to record the peak current. […] [formula] and then the activation rate corresponding to each concentration was calculated. […]

MOLECULE	SYSTEM	Emax at 1 µM
C[C@@]1(O)CC[C@@]2(C)[C@@H](CC[C@@H]3[C@@H]2CC[C@]2(C)[C@@H](C(=O)COc4noc5ccccc45)CCC[C@@H]32)C1 [KH025]	GABAA1 (α1β2γ2) receptor (Homo sapiens, UniProt P14867+P47870)	60 to 80%
C[C@]12CC[C@@H](O)C[C@@H]1CC[C@@H]1[C@@H]2CC[C@]2(C)[C@@H](C(=O)Cn3cnnn3)CCC[C@@H]12 [KH005]	GABAA1 (α1β2γ2) receptor (Homo sapiens, UniProt P14867+P47870)	60 to 80%
C[C@]12CC[C@@H](O)C[C@@H]1CC[C@@H]1[C@@H]2CC[C@]2(C)[C@@H](C(=O)Cn3cc(Cl)cn3)CCC[C@@H]12 [KH013]	GABAA1 (α1β2γ2) receptor (Homo sapiens, UniProt P14867+P47870)	0 to 20%
C[C@]12CC[C@@H](O)C[C@@H]1CC[C@@H]1[C@@H]2CC[C@]2(C)[C@@H](C(=O)Cn3ncnn3)CCC[C@@H]12 [KH004]	GABAA1 (α1β2γ2) receptor (Homo sapiens, UniProt P14867+P47870)	> 80%
C[C@]12CC[C@@H](O)C[C@@H]1CC[C@@H]1[C@@H]2CC[C@]2(C)[C@@H](C(=O)Cn3cc(C#N)cn3)CCC[C@@H]12 [KH002]	GABAA1 (α1β2γ2) receptor (Homo sapiens, UniProt P14867+P47870)	60 to 80%
C[C@]12CC[C@@H](O)C[C@@H]1CC[C@@H]1[C@@H]2CC[C@]2(C)[C@@H](C(=O)Cn3ncc4ccccc43)CCC[C@@H]12 [KH011]	GABAA1 (α1β2γ2) receptor (Homo sapiens, UniProt P14867+P47870)	60 to 80%
C[C@@]1(O)CC[C@@]2(C)[C@@H](CC[C@@H]3[C@@H]2CC[C@]2(C)[C@@H](C(=O)CO)CCC[C@@H]32)C1 [KH042]	GABAA1 (α1β2γ2) receptor (Homo sapiens, UniProt P14867+P47870)	40 to 60%
C[C@@]1(O)CC[C@@]2(C)[C@@H](CC[C@@H]3[C@@H]2CC[C@]2(C)[C@@H](C(=O)Cn4nccn4)CCC[C@@H]32)C1 [KH043]	GABAA1 (α1β2γ2) receptor (Homo sapiens, UniProt P14867+P47870)	20 to 40%

So for C[C@]12CC[C@@H](O)C[C@@H]1CC[C@@H]1[C@@H]2CC[C@]2(C)[C@@H](C(=O)Cn3cc(C(F)(F)F)cn3)CCC[C@@H]12 [KH010] , the logged Emax at 1 µM turned out to be 20 to 40%

So for C[C@@]1(O)CC[C@@]2(C)[C@@H](CC[C@@H]3[C@@H]2CC[C@]2(C)[C@@H](C(=O)C(n4cc(C#N)cn4)n4cc(C#N)cn4)CCC[C@@H]32)C1 [KH027] , the logged Emax at 1 µM turned out to be 0 to 20%

So for C[C@@]1(O)CC[C@@]2(C)[C@@H](CC[C@@H]3[C@@H]2CC[C@]2(C)[C@@H](C(=O)Cn4cc(C#N)cn4)CCC[C@@H]32)C1 [KH040] , the logged Emax at 1 µM turned out to be 20 to 40%

So for Cc1cccc2c(OCC(=O)[C@H]3CCC[C@H]4[C@@H]5CC[C@H]6C[C@](C)(O)CC[C@]6(C)[C@H]5CC[C@]34C)ncnc12 [KH029] , the logged Emax at 1 µM turned out to be 0 to 20%

So for C[C@]12CC[C@@H](O)C[C@@H]1CC[C@@H]1[C@@H]2CC[C@]2(C)[C@@H](C(=O)Cn3ccc4ccccc43)CCC[C@@H]12 [KH009] , the logged Emax at 1 µM turned out to be > 80%
